# assay_overview: Third PK study: intravenous dose on day 1 or on day 6 after 5 days oral dosing
# Assay type: in vivo, female Swiss Albino mice
# assay_conditions: female, Swiss Albino, mouse, plasma, iv, 5 mg/kg, Group 1, Day 1: single 5 mg/kg i.v., female mice

>  <compound_structure_string>
COc1cc(N2CCNCC2)ccc1Nc1ncc2c(n1)-n1ccc(C(=O)Nc3c(C)cccc3C)c1CC2

>  <AUC(0-inf) / ng·h/mL>
1440

$$$$

----------
# assay_overview: First PK study: single oral dose, two formulations
# Format: in vivo, female Swiss Albino mice
# assay_conditions: female, Swiss Albino, mouse, plasma, po, 7.5 mg/kg, single oral 7.5 mg/kg, Formulation 2, female mice

>  <compound_structure_string>
COc1cc(N2CCNCC2)ccc1Nc1ncc2c(n1)-n1ccc(C(=O)Nc3c(C)cccc3C)c1CC2

>  <AUC(0-inf) (ng·h/mL)>
1910

$$$$

All values here come from patent US20250057844A1.
